Taken from PubChem BioAssay (NCATS).

assay: Quantitative High-Throughput drug screen in 47 multiple myeloma cell lines against the NCATS MIPE library collection: ARP1_JJKsccF8 cell viability assay (AID 1918928; further: nearly all actives have a fitted effect of over 40% in size); settings: ARP1 myeloma cells viability, CellTiter-Glo ATP, 48 h; series mostly up to 45.8 µM
Records with an inconclusive call do not appear. The source made the active and inactive calls. The call rests on the fitted dose curve; in most records, active means well fitted cell-killing curve with a large enough effect; inconclusive means small, poorly fitted or top-dose-only effect, or effect the other way; inactive means no such curve, though single readings can be large or run the other way.
A correct response names exactly one class from active, inactive

Before answering, review these 4 worked examples.
| COMPOUND | LABEL VALUE |
| --- | --- |
| Cc1c(O)cccc1C(=O)N[C@@H](CSc1ccccc1)[C@H](O)CN1C[C@H]2CCCC[C@@H]2C[C@@H]1C(=O)NC(C)(C)C | active |
| Clc1ccc(-c2nc3sccn3c2C=NOCc2ccc(Cl)c(Cl)c2)cc1 | inactive |
| CN1C[C@H]2c3ccccc3Oc3ccc(Cl)cc3[C@@H]2C1 | inactive |
| NS(=O)(=O)c1cccc2c1C(=O)c1cccc(O)c1C2=O | active |

query: Which outcome was assigned to Clc1ccc(C(c2ccc(Cl)cc2)n2cc[n+](CC(OCc3ccc(Cl)cc3Cl)c3ccc(Cl)cc3Cl)c2)cc1 (stereo not given) in this test?
result: active
